assayText: Pharmacokinetics study of KPT-335 in cats (i.v. injection, p.o. capsules and tablets; UPLC-MS/MS, non-compartmental analysis)
Assay type: in vivo
testContext: both sexes, cat, plasma, iv, 1 mg/kg, cats, i.v. 1 mg/kg BW, 0.33 h, mean

[
  {
    "smilesText": "O=C(/C=C\\n1cnc(-c2cc(C(F)(F)F)cc(C(F)(F)F)c2)n1)NNc1ccccn1",
    "concentration at 0.33 h [ng/mL]": 733
  }
]

----------
assayText: Pharmacokinetics study of KPT-335 in cats (i.v. injection, p.o. capsules and tablets; UPLC-MS/MS, non-compartmental analysis)
Type: in vivo
testContext: both sexes, cat, plasma, po, 2 mg/kg, cats, tablet p.o. 2 mg/kg BW after feeding, 6 h, mean
Description: In this study, a parallel trial design was employed, 42 adult domestic cats (21 males and 21 females), aged 1 to 2 years and weighing 2.5 ± 0.25 kg. Cats were grouped by random number, with half male and female in each group, and all cats were determined to be systemically healthy during an initial screening visit 1 week prior to the experiment. They were acclimatized to the laboratory environment for 7 days before the study commenced. […]

[
  {
    "smilesText": "O=C(/C=C\\n1cnc(-c2cc(C(F)(F)F)cc(C(F)(F)F)c2)n1)NNc1ccccn1",
    "unitSymbol": "ng/mL",
    "concentration at 6 h": 187
  }
]

----------
assayText: Pharmacokinetics study of KPT-335 in cats (i.v. injection, p.o. capsules and tablets; UPLC-MS/MS, non-compartmental analysis)
Type: in vivo
testContext: both sexes, cat, plasma, po, 1 mg/kg, cats, tablet p.o. 1 mg/kg BW after fasting, 2 h, individual cats 1-6; read-out: Plasma concentration

[
  {
    "smilesText": "O=C(/C=C\\n1cnc(-c2cc(C(F)(F)F)cc(C(F)(F)F)c2)n1)NNc1ccccn1",
    "concentration at 2 h": "208 ng/mL"
  }
]

----------
assayText: Pharmacokinetics study of KPT-335 in cats (i.v. injection, p.o. capsules and tablets; UPLC-MS/MS, non-compartmental analysis)
Format: in vivo
testContext: both sexes, plasma, po, 0.2 mg/kg, cats, Capsule, Fasting, 0.2 mg/kg BW

[
  {
    "molecule": "O=C(/C=C\\n1cnc(-c2cc(C(F)(F)F)cc(C(F)(F)F)c2)n1)NNc1ccccn1 [KPT-335]",
    "unitSymbol": "h",
    "MRT last": 8.66
  }
]

----------
assayText: Pharmacokinetics study of KPT-335 in cats (i.v. injection, p.o. capsules and tablets; UPLC-MS/MS, non-compartmental analysis)
Assay type: in vivo
testContext: both sexes, cat, plasma, po, 1 mg/kg, cats, tablet p.o. 1 mg/kg BW after fasting, 6 h, mean

[
  {
    "smilesText": "O=C(/C=C\\n1cnc(-c2cc(C(F)(F)F)cc(C(F)(F)F)c2)n1)NNc1ccccn1",
    "concentration at 6 h": "154 ng/mL"
  }
]

----------
assayText: Pharmacokinetics study of KPT-335 in cats (i.v. injection, p.o. capsules and tablets; UPLC-MS/MS, non-compartmental analysis)
Type: in vivo
testContext: both sexes, cat, plasma, po, 2 mg/kg, cats, capsule p.o. 2 mg/kg BW, 0.75 h, mean
observationType: concentration at 0.75 h (ng/mL)

[
  {
    "smilesText": "O=C(/C=C\\n1cnc(-c2cc(C(F)(F)F)cc(C(F)(F)F)c2)n1)NNc1ccccn1",
    "recordedResult": 152
  }
]
